B1: Syntaxin-binding protein 4, residues 493 to 538; numbered along this chain, Q6ZWJ1 (parent)
chain: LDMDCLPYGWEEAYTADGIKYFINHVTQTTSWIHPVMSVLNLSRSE

Variants of: B1
Test: abundance fitness (aPCA) (normalised: wild type 0, dead -1); higher = more abundant; growth selection in yeast, the domain comes from the species named
Settings: Homo sapiens
Readout Label: abundance fitness
Give the figure by itself; no unit, no explanation.

>  <Mutation Id>
T29D

>  <abundance fitness>
-0.777

$$$$
>  <Mutation Id>
Q28T

>  <abundance fitness>
-0.81

$$$$
>  <Mutation Id>
N41C

>  <abundance fitness>
-0.236

$$$$
>  <Mutation Id>
R44E

>  <abundance fitness>
0.376

$$$$
>  <Mutation Id>
L42Y

>  <abundance fitness>
-0.876

$$$$
>  <Mutation Id>
M3D

>  <abundance fitness>
-0.103

$$$$
>  <Mutation Id>
F22A

>  <abundance fitness>
-0.956

$$$$
>  <Mutation Id>
D4G

>  <abundance fitness>
-0.348

$$$$
>  <Mutation Id>
I19G

>  <abundance fitness>
-0.062

$$$$
>  <Mutation Id>
Q28H

>  <abundance fitness>
-0.204

$$$$

Switching to the query record.
# input variant: V36E ; wanted: its abundance fitness
0.44
